Below, each entry is listed with its recorded IC50.
molecular target: recombinant JAK1 (amino acids 866-1154) (Homo sapiens (Human)); test: Enzyme inhibition studies, JAK1 (5 mM ATP, Caliper)
Sequence (P23458 866-1154): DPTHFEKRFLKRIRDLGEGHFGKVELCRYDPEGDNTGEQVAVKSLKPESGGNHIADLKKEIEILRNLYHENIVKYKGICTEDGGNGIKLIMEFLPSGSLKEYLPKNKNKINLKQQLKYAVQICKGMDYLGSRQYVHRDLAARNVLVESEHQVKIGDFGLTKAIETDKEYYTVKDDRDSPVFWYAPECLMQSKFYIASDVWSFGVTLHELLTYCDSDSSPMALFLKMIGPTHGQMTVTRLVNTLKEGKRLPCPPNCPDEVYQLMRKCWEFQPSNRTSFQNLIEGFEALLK

A selection of reference data follows.
# Molecule, IC50
measured = [
    ("CCOC[C@H](C(=O)Nc1cccc2c(-c3nc(Nc4cccc(S(C)(=O)=O)c4F)ncc3C)c[nH]c12)N1CCN(C)CC1 [Example 62]", "< 3 nM"),
    ("CC[C@@H](C(=O)Nc1cccc2c(-c3nc(Nc4cccc(S(C)(=O)=O)c4F)ncc3C)c[nH]c12)N1C[C@@H](C)N[C@H](C)C1 [Example 27]", "< 3 nM"),
]

Kindly consider the entry below.
Req: Reported IC50 for COC[C@H](C(=O)Nc1cccc2c(-c3nc(Nc4cccc(S(C)(=O)=O)c4F)ncc3F)c[nH]c12)N1CCCN(C)CC1 [Example 45] : what is it?
Resp: < 3 nM

====

biological target: recombinant JAK1 (amino acids 866-1154) (Homo sapiens (Human)); experiment: Enzyme inhibition studies, JAK1 (5 mM ATP, Caliper)
pIC50: −log10 of the molar value.
Parameter measured: pIC50

A selection of reference data follows.
# Compound, System name, pIC50
measured = [
    ("CC[C@@H](C(=O)Nc1cccc2c(-c3nc(Nc4cccc(S(C)(=O)=O)c4F)ncc3F)c[nH]c12)N1CCCN(C)CC1", "recombinant JAK1 (amino acids 866-1154) (Homo sapiens (Human))", 6.39),
    ("COC[C@@H](C(=O)Nc1cccc2c(-c3nc(Nc4cccc(S(C)(=O)=O)c4F)ncc3F)c[nH]c12)N1CCN(C)CC1", "recombinant JAK1 (amino acids 866-1154) (Homo sapiens (Human))", 5.74),
    ("CC[C@@H](C(=O)Nc1cccc2c(-c3nc(Nc4cccc(S(C)(=O)=O)c4F)ncc3C)c[nH]c12)N1CCN(C)CC1C (stereo in doubt) [Example 61]", "recombinant JAK1 (amino acids 866-1154) (Homo sapiens (Human))", 7.37),
    ("CC[C@@H](C(=O)Nc1cccc2c(-c3nc(Nc4cccc(S(C)(=O)=O)c4F)ncc3C)c[nH]c12)N1CCCN(C)CC1", "recombinant JAK1 (amino acids 866-1154) (Homo sapiens (Human))", 7.15),
    ("COC[C@@H](C(=O)Nc1cccc2c(-c3nc(Nc4cccc(S(C)(=O)=O)c4F)ncc3C)c[nH]c12)N1CCN(C)CC1", "recombinant JAK1 (amino acids 866-1154) (Homo sapiens (Human))", 6.67),
]

[I] COC[C@@H](C(=O)Nc1cccc2c(-c3nc(Nc4cccc(S(C)(=O)=O)c4F)ncc3C)c[nH]c12)N1C[C@@H](C)N[C@H](C)C1
[II] Cc1cnc(Nc2cccc(S(C)(=O)=O)c2F)nc1-c1c[nH]c2c(NC(=O)[C@H](C)N3CCNCC3)cccc12
Req: Between I and II , which one has the lower reported pIC50 value? Bench note: the answer is the label of the chosen record.
Resp: I

====

target: recombinant JAK3 (amino acids 781-1124) (Homo sapiens (Human), UniProt P52333); test: Enzyme inhibition studies, JAK3 (5 mM ATP, Caliper)
Sequence (P52333 781-1124): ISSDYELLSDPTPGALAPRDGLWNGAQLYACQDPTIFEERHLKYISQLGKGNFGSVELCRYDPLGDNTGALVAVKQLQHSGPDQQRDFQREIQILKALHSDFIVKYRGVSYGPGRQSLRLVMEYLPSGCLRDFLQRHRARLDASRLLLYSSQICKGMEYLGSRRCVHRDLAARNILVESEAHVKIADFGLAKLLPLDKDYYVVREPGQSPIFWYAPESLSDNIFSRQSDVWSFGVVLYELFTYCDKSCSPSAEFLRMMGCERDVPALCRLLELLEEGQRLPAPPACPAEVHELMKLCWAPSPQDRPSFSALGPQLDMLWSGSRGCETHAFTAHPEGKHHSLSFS
Below, each entry is listed with its recorded IC50.

Req: Reported IC50 for CC[C@H](C(=O)Nc1cccc2c(-c3nc(Nc4cccc(S(C)(=O)=O)c4F)ncc3F)c[nH]c12)N1C[C@@H](C)N[C@H](C)C1 : what is it?
Resp: > 30 µM

Req: Reported IC50 for COC[C@@H](C(=O)Nc1cccc2c(-c3nc(Nc4cccc(S(C)(=O)=O)c4F)ncc3C)c[nH]c12)N1CCN(C)CC1 : what is it?
Resp: > 30 µM

Req: Reported IC50 for Cc1cnc(Nc2cccc(S(C)(=O)=O)c2F)nc1-c1c[nH]c2c(NC(=O)[C@@H](C)N3CCNCC3)cccc12 : what is it?
Resp: > 30 µM
